Measured values drawn from patent US12144869B2 for this set.

I'd be grateful if you could share measured Biacore human ROR1-Fz kd for these entries.
- TGT: T1, human ROR1-Fz (Homo sapiens, UniProt Q01973)
- T1 construct: Frizzled (Fz, residues 165-305); His6 (C); purchased Acro Biosystems; host or cells: HEK293
- PROTOCOL SUMMARY: Biacore off-rate and kinetic analysis, ROR1-Fz
- Format: binding
- CONDITION DESCRIPTION: Table 11; SP34 light chain
Numbers only, in s⁻¹.

>>> measured_value("SRP2196-C04 (antibody, V domains shown) VH: EVQLVESGGGLVQPGGSLRLSCAASGFNITGYYIHWVRQAPGKGLEWVGFIAPLSGSTHNADSVKGRFTISADTSKNTAYLQMNSLRAEDTAVYYCARESRRYVNPWDYWGQGTLVTVSS VL: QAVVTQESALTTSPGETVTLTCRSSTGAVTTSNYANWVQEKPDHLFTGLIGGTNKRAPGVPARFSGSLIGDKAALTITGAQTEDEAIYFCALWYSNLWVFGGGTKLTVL")
0.000704
>>> measured_value("SRP2196-C02 (antibody, V domains shown) VH: EVQLVESGGGLVQPGGSLRLSCAASGFNITGYHIHWVRQAPGKGLEWVGFISPNSGWTYSADSVKGRFTISADTSKNTAYLQMNSLRAEDTAVYYCARDSRRYVRPFDYWGQGTLVTVSS VL: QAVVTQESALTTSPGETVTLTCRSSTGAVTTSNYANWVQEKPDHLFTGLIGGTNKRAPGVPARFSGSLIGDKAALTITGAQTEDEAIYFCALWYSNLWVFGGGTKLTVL")
0.00036

Let us examine a further case.
Prompt line: Entry SRP2196-B04 (antibody, V domains shown) VH: EVQLVESGGGLVQPGGSLRLSCAASGFNITEYYIHWVRQAPGKGLEWVGYISPNSGATYQADSVKGRFTISADTSKNTAYLQMNSLRAEDTAVYYCARDSRRYVRGWDYWGQGTLVTVSS VL: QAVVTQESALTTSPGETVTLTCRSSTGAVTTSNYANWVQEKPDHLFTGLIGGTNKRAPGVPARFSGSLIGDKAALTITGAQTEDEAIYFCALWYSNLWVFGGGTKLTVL has what Biacore human ROR1-Fz kd?
Response line: 0.000352
